assay: Fraction unbound in rat plasma; assay type: ADME, cell-free
measurement name: fraction unbound
Respond numerically, and do not add a unit to the figure.

Query :: What fraction unbound value was documented for this compound, `COc1cc(N2CC(NC(=O)c3ccc4nc(C)cc(C)c4c3)C2)c(Cl)cn1` ?
Result :: 0.002

Query :: Recorded fraction unbound for `Cc1cc(C)c2cc(C(=O)NC3CN(c4cc(Cl)ncc4Cl)C3)ccc2n1` , please?
Result :: 0.002

Query :: GET /values?readout=fraction unbound&item= `Cc1cc(C)c2cc(C(=O)NC3CN(c4ccc(C(F)(F)F)nc4)C3)ccc2n1`
Result :: 0.004

Query :: Given the compound `Cc1cc(C)c2cc(C(=O)NC3CN(c4ccnc(F)c4F)C3)ccc2n1` , what is its reported fraction unbound?
Result :: 0.013

###

molecular target: Muscarinic acetylcholine receptor M4 (Rattus norvegicus); assay: Positive allosteric modulation of rat M4 receptor expressed in CHO cells co-expressing Gqi5 assessed as increase in acetylcholine-induced calcium mobilization; assay type: functional, cell-based; settings: read-out: EC50
measurement name: EC50

Query :: Reported EC50 for Muscarinic acetylcholine receptor M4 (Rattus norvegicus), given `Cc1cc(C)c2cc(C(=O)NC3CN(c4cc(Cl)ncc4Cl)C3)ccc2n1` ?
Result :: 307 nM

Query :: I'm curious: which EC50 was measured for `Cc1cc(C)c2cc(C(=O)NC3CN(c4ncc(OC(C)C)cn4)C3)ccc2n1` tested on Muscarinic acetylcholine receptor M4 (Rattus norvegicus)?
Result :: 6140 nM

Query :: Any idea what EC50 came out for `Cc1cc(C)c2cc(C(=O)NC3CN(c4cc(Cl)nc(Cl)c4)C3)ccc2n1` on Muscarinic acetylcholine receptor M4 (Rattus norvegicus)?
Result :: 225 nM

Query :: Find EC50 (Muscarinic acetylcholine receptor M4 (Rattus norvegicus)) for the entry `Cc1cc(N2CC(NC(=O)c3ccc4nc(C)cc(C)c4c3)C2)cc(OC(F)F)n1`
Result :: 1060 nM

Query :: Request body: readout EC50, system Muscarinic acetylcholine receptor M4 (Rattus norvegicus), query `Cc1cc(C)c2cc(C(=O)NC3CN(c4ccc(C(F)(F)F)cn4)C3)ccc2n1` . Return the value.
Result :: 1080 nM

Query :: Record `COc1ccc(CNC(=O)c2ccc3nc(C)cc(C)c3c2)cc1F` : what is its EC50 with Muscarinic acetylcholine receptor M4 (Rattus norvegicus)?
Result :: > 10000 nM

Query :: Query the reported EC50 for Muscarinic acetylcholine receptor M4 (Rattus norvegicus); item: `Cc1cc(C)c2cc(C(=O)NC3CN(c4ncc(F)cc4Cl)C3)ccc2n1`
Result :: 401 nM

Query :: GET /values?readout=EC50&system=Muscarinic acetylcholine receptor M4 (Rattus norvegicus)&item= `Cc1cc(C)c2cc(C(=O)NC3CN(c4ccnc(F)c4F)C3)ccc2n1`
Result :: 332 nM

Query :: Requested read-out EC50, target or system Muscarinic acetylcholine receptor M4 (Rattus norvegicus), entry `COc1ccc(CNC(=O)c2sc3nnc(C)c(C)c3c2N)cc1F`
Result :: 225 nM

Query :: Muscarinic acetylcholine receptor M4 (Rattus norvegicus) / EC50 / `Cc1cc(C)c2cc(C(=O)NC3CN(c4ncc(Cl)cc4F)C3)ccc2n1` : value?
Result :: 453 nM

Query :: Request: EC50, test system Muscarinic acetylcholine receptor M4 (Rattus norvegicus), entry `Cc1cc(C)c2cc(C(=O)NC3CN(c4ccc(Cl)cn4)C3)ccc2n1`
Result :: 967 nM

Query :: API: value(readout=EC50, system=Muscarinic acetylcholine receptor M4 (Rattus norvegicus)) for record `Cc1cc(C)c2cc(C(=O)NC3CN(c4ccnc(C(F)(F)F)c4)C3)ccc2n1`
Result :: 820 nM

Query :: # get_value(readout= EC50, system= Muscarinic acetylcholine receptor M4 (Rattus norvegicus)) for `Cc1cc(C)c2cc(C(=O)NC3CN(c4ncc(F)cn4)C3)ccc2n1`
Result :: > 10000 nM

Query :: API: value(readout=EC50, system=Muscarinic acetylcholine receptor M4 (Rattus norvegicus)) for record `COc1cc(N2CC(NC(=O)c3ccc4nc(C)cc(C)c4c3)C2)c(Cl)cn1`
Result :: 383 nM

Query :: Field: EC50 (Muscarinic acetylcholine receptor M4 (Rattus norvegicus)). Entry: `Cc1cc(C)c2cc(C(=O)NC3CN(c4ccc(F)c(F)c4)C3)ccc2n1`
Result :: 856 nM

Query :: Tell me reported EC50 for `COc1nc2sc(C(=O)NC3CC3)c(N)c2c(C)c1Cl` , tested with Muscarinic acetylcholine receptor M4 (Rattus norvegicus).
Result :: 225 nM

Query :: Please state recorded EC50 (tested on Muscarinic acetylcholine receptor M4 (Rattus norvegicus)) of `COc1ccc(C)c2sc(NC(=O)c3ccncc3)nc12`
Result :: 225 nM

Query :: Notebook entry, Muscarinic acetylcholine receptor M4 (Rattus norvegicus) assay: EC50 of `Cc1cc(C)c2cc(C(=O)NC3CN(c4ncc(Cl)cc4Cl)C3)ccc2n1` = ?
Result :: 587 nM

Query :: Write down the reported EC50 of `Cc1cc(C)c2cc(C(=O)NC3CN(c4cnc(C(F)(F)F)cn4)C3)ccc2n1` , test system: Muscarinic acetylcholine receptor M4 (Rattus norvegicus).
Result :: 1160 nM

Query :: Write down the reported EC50 of `Cc1cc(C)c2cc(C(=O)NC3CN(c4cnc(C5CC5)cn4)C3)ccc2n1` , test system: Muscarinic acetylcholine receptor M4 (Rattus norvegicus).
Result :: 1070 nM

Query :: Find EC50 (Muscarinic acetylcholine receptor M4 (Rattus norvegicus)) for the entry `Cc1ccc(OC2CCN(c3ncnc4ccc(F)cc34)CC2)cn1`
Result :: 225 nM

###

molecular target: Muscarinic acetylcholine receptor M4 (Rattus norvegicus) (UniProt P08485); test: Positive allosteric modulation of rat M4 receptor expressed in CHO cells co-expressing Gqi5 assessed as increase in acetylcholine-induced calcium mobilization relative to acetylcholine; type: functional, cell-based
Sequence (P08485 whole entry): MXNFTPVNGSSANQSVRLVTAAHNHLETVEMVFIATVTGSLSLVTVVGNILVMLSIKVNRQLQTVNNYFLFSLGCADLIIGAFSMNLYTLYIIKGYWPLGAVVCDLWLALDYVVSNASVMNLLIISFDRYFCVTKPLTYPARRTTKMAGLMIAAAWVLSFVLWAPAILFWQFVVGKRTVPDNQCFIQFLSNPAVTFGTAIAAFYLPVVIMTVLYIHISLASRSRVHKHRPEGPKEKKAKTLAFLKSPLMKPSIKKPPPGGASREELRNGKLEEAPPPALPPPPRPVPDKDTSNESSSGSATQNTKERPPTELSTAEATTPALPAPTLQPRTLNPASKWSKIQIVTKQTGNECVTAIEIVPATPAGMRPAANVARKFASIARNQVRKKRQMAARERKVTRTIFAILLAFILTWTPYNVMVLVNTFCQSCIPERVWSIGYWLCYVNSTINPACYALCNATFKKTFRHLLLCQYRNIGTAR
For each of the molecules below, state its %max.
# value in %; strip the unit string

Query :: So what does the record say about %max for `Cc1cc(C)c2cc(C(=O)N3CCCC3)ccc2n1` ?
Result :: 18.3

Query :: Looking for the measured %max of `Cc1cc(C)c2cc(C(=O)NC3CN(c4ncc(Cl)cc4F)C3)ccc2n1` , can you help?
Result :: 82

Query :: Need %max of `Cc1cc(C)c2cc(C(=O)NC3CN(c4ccc(F)c(F)c4)C3)ccc2n1` , thanks.
Result :: 55

Query :: Any idea what its %max is? The molecule is `Cc1cc(C)c2cc(C(=O)NC3CN(c4cc(Cl)nc(Cl)c4)C3)ccc2n1`
Result :: 44

Query :: Suppose we examine the molecule `Cc1cc(C)c2cc(C(=O)NC3CN(c4ncc(OC(C)C)cn4)C3)ccc2n1` ; what %max value has been reported?
Result :: 73

Query :: Need %max, item `Cc1cc(C)c2cc(C(=O)NC3CN(c4ccc(Cl)cn4)C3)ccc2n1`
Result :: 84

Query :: State the recorded %max for this entry: `Cc1cc(C)c2cc(C(=O)NC3CN(c4cccc(Cl)n4)C3)ccc2n1`
Result :: 77

Query :: # query: %max of entry `COc1ccc(CNC(=O)c2ccc3nc(C)cc(C)c3c2)cc1F`
Result :: 63

Query :: What value of %max has been recorded for this entry: `Cc1cc(C)c2cc(C(=O)NC3CN(c4ccc(C(F)(F)F)cn4)C3)ccc2n1`
Result :: 77

Query :: Using the record for `Cc1cc(C)c2cc(C(=O)NC3CN(c4ccnc(OC(F)F)c4)C3)ccc2n1` , report its %max.
Result :: 86

Query :: Look at this molecule and give its reported %max. `Cc1cc(C)c2cc(C(=O)NC3CN(c4ncc(C(F)(F)F)cn4)C3)ccc2n1`
Result :: 66

Query :: # lookup: %max of `Cc1cc(C)c2cc(C(=O)NC3CN(c4ccc(C(F)(F)F)nc4)C3)ccc2n1`
Result :: 85

Query :: Look up %max for this molecule: `Cc1cc(C)c2cc(C(=O)NC3CN(c4ccc(OC(F)F)nc4)C3)ccc2n1`
Result :: 43

Query :: Param item = `Cc1cc(C)c2cc(C(=O)NC3CN(c4ncc(Cl)cc4Cl)C3)ccc2n1` ; retrieve measured %max.
Result :: 70

Query :: I am curious: what %max value has been reported for `Cc1cc(C)c2cc(C(=O)NC3CN(c4ccnc(C(F)(F)F)c4)C3)ccc2n1` ?
Result :: 61

Query :: May I ask what %max has been recorded for `Cc1cc(C)c2cc(C(=O)NC3CN(c4ncc(F)cn4)C3)ccc2n1` ?
Result :: 61

Query :: Form field: reported %max of `Cc1cc(C)c2cc(C(=O)NC3CN(c4cnc(C5CC5)cn4)C3)ccc2n1`
Result :: 82

Query :: Look up %max: `Cc1cc(C)c2cc(C(=O)NC3CN(c4cnc(C(F)(F)F)cn4)C3)ccc2n1`
Result :: 75

Query :: For the molecule shown here, `COc1cc(N2CC(NC(=O)c3ccc4nc(C)cc(C)c4c3)C2)c(Cl)cn1` , give the reported %max.
Result :: 62

###

assay: Intrinsic clearance in human liver microsomes; format: ADME, microsome; conditions: read-out: CLH
measurement name: CLint scaled (mL/min/kg)
# value in mL/min/kg; strip the unit string

Query :: Which CLint scaled is listed for `Cc1cc(C)c2cc(C(=O)NC3CN(c4ccnc(F)c4F)C3)ccc2n1` ?
Result :: 129

Query :: State the recorded CLint scaled for this entry: `Cc1cc(C)c2cc(C(=O)NC3CN(c4cc(Cl)ncc4Cl)C3)ccc2n1`
Result :: 160

Query :: Which CLint scaled is listed for `COc1cc(N2CC(NC(=O)c3ccc4nc(C)cc(C)c4c3)C2)c(Cl)cn1` ?
Result :: 106

Query :: Which value of CLint scaled has been reported for `Cc1cc(C)c2cc(C(=O)NC3CN(c4ccc(C(F)(F)F)nc4)C3)ccc2n1` in the records?
Result :: 36
